Ref: ChEMBL document CHEMBL1201862

Molecular target: Replicative DNA helicase DnaB (Mycobacterium tuberculosis)
Sequence (P9WMR3 whole entry): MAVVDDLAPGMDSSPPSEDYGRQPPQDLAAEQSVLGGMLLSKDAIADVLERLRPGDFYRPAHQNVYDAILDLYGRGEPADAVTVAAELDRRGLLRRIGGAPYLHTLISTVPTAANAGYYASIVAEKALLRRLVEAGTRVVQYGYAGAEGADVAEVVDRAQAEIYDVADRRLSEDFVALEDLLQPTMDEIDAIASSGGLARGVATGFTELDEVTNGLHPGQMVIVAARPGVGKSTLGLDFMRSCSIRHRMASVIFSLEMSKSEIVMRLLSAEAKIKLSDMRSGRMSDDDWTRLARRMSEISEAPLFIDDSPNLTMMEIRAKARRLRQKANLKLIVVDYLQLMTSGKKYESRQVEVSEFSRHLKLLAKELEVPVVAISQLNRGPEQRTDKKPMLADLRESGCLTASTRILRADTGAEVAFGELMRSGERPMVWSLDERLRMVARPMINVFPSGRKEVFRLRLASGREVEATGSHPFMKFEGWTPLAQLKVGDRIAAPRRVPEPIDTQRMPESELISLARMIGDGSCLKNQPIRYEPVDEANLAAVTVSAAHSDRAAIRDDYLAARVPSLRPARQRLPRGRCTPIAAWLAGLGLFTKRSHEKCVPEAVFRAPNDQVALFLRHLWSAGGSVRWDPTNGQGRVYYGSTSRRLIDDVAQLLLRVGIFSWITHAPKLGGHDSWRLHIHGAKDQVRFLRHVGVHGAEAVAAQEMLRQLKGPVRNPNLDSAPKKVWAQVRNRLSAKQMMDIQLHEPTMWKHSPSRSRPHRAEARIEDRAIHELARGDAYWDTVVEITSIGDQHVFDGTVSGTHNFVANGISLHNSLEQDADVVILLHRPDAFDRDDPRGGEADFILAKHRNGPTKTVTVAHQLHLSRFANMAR
Test: DnaB intein splicing inhibitors, dose response, biochemical, cell-free fluorescence (AID 449749)
Format: functional
Calls of active or inactive are those of the source. Rule as the data show it: actives have a measured AC50 and inactives only a lower limit.
Classes used: active, inactive

>  <Compound>
COc1ccc(Br)cc1[C@H]1[C@H]2C=CC[C@@H](C)[C@@H]2C(=O)N1Cc1ccccc1

>  <Class>
active

$$$$
>  <Compound>
CCOC(=O)c1nc(O)c2ccccc2c1O

>  <Class>
inactive

$$$$
>  <Compound>
CCOc1cc(/C=C2/C(=O)N(c3ccccc3)N=C2C)ccc1OC(=O)c1ccco1

>  <Class>
active

$$$$
>  <Compound>
CC(NC(=O)/C(C#N)=C/c1ccc([N+](=O)[O-])o1)c1ccccc1 (stereo not given)

>  <Class>
inactive

$$$$
>  <Compound>
N#CC1=C(N)Oc2[nH]nc(-c3ccc(F)cc3)c2C1c1ccncc1 (stereo not given)

>  <Class>
active

$$$$
